Hey, just so you know, these numbers are from ChEMBL document CHEMBL5150003.

target_or_test_system: Furin (Homo sapiens)
Sequence (P09958 whole entry): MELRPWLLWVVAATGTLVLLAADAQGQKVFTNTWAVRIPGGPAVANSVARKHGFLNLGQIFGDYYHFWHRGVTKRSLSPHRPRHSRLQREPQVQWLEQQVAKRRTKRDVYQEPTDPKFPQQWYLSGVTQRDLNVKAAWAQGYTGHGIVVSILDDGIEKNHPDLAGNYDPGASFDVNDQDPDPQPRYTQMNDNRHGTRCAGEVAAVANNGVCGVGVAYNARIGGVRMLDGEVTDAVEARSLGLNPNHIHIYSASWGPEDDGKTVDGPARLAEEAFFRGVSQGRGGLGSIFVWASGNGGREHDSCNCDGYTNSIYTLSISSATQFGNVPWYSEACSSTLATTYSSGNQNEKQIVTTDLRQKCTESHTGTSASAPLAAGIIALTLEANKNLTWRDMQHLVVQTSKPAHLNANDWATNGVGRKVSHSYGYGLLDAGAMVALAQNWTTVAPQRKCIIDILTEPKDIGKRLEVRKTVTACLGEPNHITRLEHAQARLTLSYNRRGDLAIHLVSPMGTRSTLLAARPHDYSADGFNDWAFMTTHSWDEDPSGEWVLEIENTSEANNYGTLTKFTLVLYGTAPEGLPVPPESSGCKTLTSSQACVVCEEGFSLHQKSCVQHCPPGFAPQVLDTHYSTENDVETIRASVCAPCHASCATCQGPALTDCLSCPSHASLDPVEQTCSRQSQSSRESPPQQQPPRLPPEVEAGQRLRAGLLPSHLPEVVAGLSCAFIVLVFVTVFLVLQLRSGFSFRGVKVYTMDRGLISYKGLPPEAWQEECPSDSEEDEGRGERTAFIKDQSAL
method_summary: Inhibition of furin (unknown origin)
Numbered stars: 1 amine (or outer) side, 2 acyl side, 3 side chain; on linkers, the order of the positions; unused ones are H or OH. Bridge positions count the residues as written; N and C are the ends. Square brackets hold non-standard residues; d marks the D form. Peptide text beside a SMILES is read from it. * marks the point of attachment. NH(4-amidinobenzyl) = N=C(N)c1ccc(CN*)cc1; 2Nal = N[C@@H](Cc1ccc2ccccc2c1)C(=O)O; Suc = O=C(CCC(=O)[*:2])[*:1]
Listing of entries alongside the reported pKi.
// pKi is dimensionless: -log10 of concentration (M)

{"columns": ["compound", "pKi"],
 "data": [
  ["CC1C(=O)N[C@@H](CCCNC(=N)N)C(=O)N[C@@H](C)C(=O)N[C@@H](CCCNC(=N)N)C(=O)N[C@@H](CCCNC(=N)N)C(=O)N[C@@H](CCCNC(=N)N)C(=O)N[C@H](C(=O)N[C@@H](CCCCN)C(=O)N[C@@H](CCCNC(=N)N)C(=O)N[C@H](C(N)=O)[C@@H](C)O)CCCCNC(CCCNC(=N)N)c2cn1nn2 (stereo partly drawn)", 7.78],
  ["N=C(N)NCCC[C@@H]1NC(=O)[C@H](Cc2ccc3ccccc3c2)NC(=O)[C@H](Cc2ccccc2)NC(=O)CCC(=O)NCCCC[C@@H](C(=O)N[C@@H](CCCCN)C(=O)NCc2ccc(C(=N)N)cc2)NC(=O)[C@H](CCCNC(=N)N)NC(=O)[C@H](CCCNC(=N)N)NC1=O (F[2Nal]RRRKK-{NH(4-amidinobenzyl)}; linker N-6 via Suc)", 9.21]
]}

Turning now to a further record.
Can you look up the measured pKi of CC(=O)N[C@@H](CCCNC(=N)N)C(=O)NN(CCCNC(=N)N)CC(=O)N[C@@H](C)C(=O)N[C@@H](CCCNC(=N)N)C(=O)N[C@@H](CCCNC(=N)N)C(=O)N[C@@H](CCCNC(=N)N)C(=O)N[C@@H](CCCCN)C(=O)N[C@@H](CCCCN)C(=O)N[C@@H](CCCNC(=N)N)C(=O)N[C@H](C(N)=O)[C@@H](C)O for me? 7.92
